- Test system: SUDIPGIV (diffuse intrinsic pontine glioma line)
- test.name: growth inhibition (% activity, log2 RLU normalised to DMSO / staurosporine); higher = more growth inhibition
- run.conditions: 33 µM
endpoint: growth inhibition (%)
Hi! Could you send only the number? It should be in %, unit omitted.

# annotated cases, reported growth inhibition shown
| input.smiles | growth inhibition, % |
| --- | --- |
| CC(=O)O[C@H]1C(=O)[C@@]2(C)[C@H]([C@H](OC(=O)c3ccccc3)[C@]3(O)C[C@H](OC(=O)[C@H](O)[C@@H](NC(=O)c4ccccc4)c4ccccc4)C(C)=C1C3(C)C)[C@]1(OC(C)=O)CO[C@@H]1C[C@@H]2O | 25.9 |
| CNC(=O)c1ccccc1Sc1ccc2c(/C=C/c3ccccn3)n[nH]c2c1 | 4.73 |
| CS(=O)(=O)c1ccc([C@@H](O)[C@@H](CO)NC(=O)C(Cl)Cl)cc1 | 35 |
| C[C@]12CCC3=C4CCC(=O)C=C4CC[C@H]3[C@@H]1CC[C@@]2(O)CC#N | -0.958 |
| COc1ccc2cc(CCC(C)=O)ccc2c1 | -0.544 |
| O=C(O)c1cn(-c2ccc(F)cc2)c2cc(N3CCNCC3)c(F)cc2c1=O | 4.25 |
| CCCCCCCCCCCC[N+](C)(C)CCOc1ccccc1 | 55.7 |
| COc1ccc([C@@H]2Sc3ccccc3N(CCN(C)C)C(=O)[C@@H]2OC(C)=O)cc1 | -1.32 |

Endpoint output: growth inhibition of CC[C@@H](CO)NCCN[C@@H](CC)CO . Value?
-3.04

Endpoint output: growth inhibition of OC[C@H]1O[C@H](O[C@]2(CCl)O[C@H](CCl)[C@@H](O)[C@@H]2O)[C@H](O)[C@@H](O)[C@H]1Cl . Value?
-0.426

Endpoint output: growth inhibition of C[C@@]12C[C@@]3(O)O[C@@H](O1)[C@]1(COC(=O)c4ccccc4)[C@H]3C[C@@]12O[C@@H]1O[C@H](CO)[C@@H](O)[C@H](O)[C@H]1O . Value?
-1.25

Endpoint output: growth inhibition of CN(C)c1nc(N(C)C)nc(N(C)C)n1 . Value?
-3.04

Endpoint output: growth inhibition of Cc1cc2c(cc1S(N)(=O)=O)S(=O)(=O)CCC2 . Value?
-0.262

Endpoint output: growth inhibition of O=C1CCc2ccc(OCCCCN3CCN(c4cccc(Cl)c4Cl)CC3)cc2N1 . Value?
4.8

###

- Tested on: HGGX6 (H3.3 G34R paediatric high-grade glioma line)
- test.name: growth inhibition (% activity, log2 RLU normalised to DMSO / staurosporine); higher = more growth inhibition
- run.conditions: 33 µM
endpoint: growth inhibition (%)
Hi! Could you send only the number? It should be in %, unit omitted.

# annotated cases, reported growth inhibition shown
| compound | output.unit | growth inhibition |
| --- | --- | --- |
| Cc1nc2n(c(=O)c1CCN1CCC(c3noc4cc(F)ccc34)CC1)CCCC2O (stereo not given) | % | -1.12 |
| CCCCCCCCCCOc1cc2c(O)c(C(=O)OCC)cnc2cc1OCC | % | -2.39 |
| CN(CCOc1ccc(NS(C)(=O)=O)cc1)CCc1ccc(NS(C)(=O)=O)cc1 | % | -1.41 |
| CCOC(=O)OC(C)OC1=C(C(=O)Nc2ccccn2)N(C)S(=O)(=O)c2ccccc21 (stereo not given) | % | -1.42 |
| CNCC[C@@H](Oc1ccccc1C)c1ccccc1 | % | -1.18 |

Please tell me: growth inhibition of C[C@H]1[C@H](NC(=O)/C(=N\OC(C)(C)C(=O)O)c2csc(N)n2)C(=O)N1S(=O)(=O)O , system HGGX6?
1.95

Please tell me: growth inhibition of CCCCCN(C)CCC(O)(P(=O)(O)O)P(=O)(O)O , system HGGX6?
-3.74

Please tell me: growth inhibition of CCn1cc(C(=O)O)c(=O)c2cc(F)c(N3CCNCC3)nc21 , system HGGX6?
-1.99

Please tell me: growth inhibition of Cc1cn([C@@H]2C[C@@H](O)[C@H](CO)O2)c(=O)[nH]c1=O , system HGGX6?
-3.82

Please tell me: growth inhibition of CCN(CC)C(=O)C1(c2ccccc2)CC1CN (stereo not given) , system HGGX6?
2.42

Please tell me: growth inhibition of Clc1ccccc1C(c1ccccc1)(c1ccccc1)n1ccnc1 , system HGGX6?
14.3

Please tell me: growth inhibition of CCC(CC)[C@H](NC(C)=O)[C@@H]1[C@H](O)[C@@H](C(=O)O)C[C@H]1NC(=N)N , system HGGX6?
-1.09

Please tell me: growth inhibition of CCC(=O)O[C@]1(C(=O)CCl)[C@@H](C)C[C@H]2[C@@H]3CCC4=CC(=O)C=C[C@]4(C)[C@@]3(F)[C@@H](O)C[C@@]21C , system HGGX6?
1.59

Please tell me: growth inhibition of CC(C)(C)NCC(O)c1ccc(O)c(CO)c1 (stereo not given) , system HGGX6?
1.2

Please tell me: growth inhibition of Cc1c(-c2ccc(O)cc2)n(Cc2ccc(OCCN3CCCCCC3)cc2)c2ccc(O)cc12 , system HGGX6?
16.4
